Biological target: Plasminogen (Homo sapiens)
Sequence (P00747 97-580 limits assumed): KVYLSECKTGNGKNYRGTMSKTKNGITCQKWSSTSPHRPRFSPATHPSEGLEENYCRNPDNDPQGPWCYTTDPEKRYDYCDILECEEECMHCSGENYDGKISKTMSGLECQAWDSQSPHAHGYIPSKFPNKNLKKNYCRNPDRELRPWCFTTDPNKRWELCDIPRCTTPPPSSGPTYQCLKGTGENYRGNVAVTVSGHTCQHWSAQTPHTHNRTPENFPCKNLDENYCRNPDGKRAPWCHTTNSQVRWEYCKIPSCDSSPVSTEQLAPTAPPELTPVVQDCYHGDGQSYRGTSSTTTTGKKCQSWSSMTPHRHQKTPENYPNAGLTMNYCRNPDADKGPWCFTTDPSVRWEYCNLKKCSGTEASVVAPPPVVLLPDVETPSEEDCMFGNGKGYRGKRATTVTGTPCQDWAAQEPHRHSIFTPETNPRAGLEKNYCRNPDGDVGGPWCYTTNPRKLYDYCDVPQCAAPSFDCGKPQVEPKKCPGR
Sequence (P00747 581-810 limits assumed): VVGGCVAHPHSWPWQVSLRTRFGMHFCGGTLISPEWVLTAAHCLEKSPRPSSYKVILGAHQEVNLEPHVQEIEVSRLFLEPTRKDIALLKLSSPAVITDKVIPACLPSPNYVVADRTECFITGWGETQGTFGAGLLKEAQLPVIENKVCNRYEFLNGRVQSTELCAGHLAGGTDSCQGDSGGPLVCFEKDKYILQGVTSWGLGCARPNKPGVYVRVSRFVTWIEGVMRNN
Reported log10(IC50) by item:
measured parameter: log10(IC50) (log10 of the value in µM)

{"columns": ["smiles record", "system name", "log10(IC50)"],
 "data": [
  ["C/C=C\\Cc1ccc(-c2ccc(C(=O)NCC(C)C)cc2C(=O)O)c(C(=O)Nc2ccc(C(=N)N)cc2)c1", "Plasminogen (Homo sapiens)", -0.16],
  ["CC(C)CNC(=O)c1ccc(-c2ccc(-c3nccs3)cc2C(=O)Nc2ccc(C(=N)N)cc2)c(C(=O)O)c1", "Plasminogen (Homo sapiens)", -0.31],
  ["CC(C)CNC(=O)c1ccc(-c2ccc(Cc3ccccc3)cc2C(=O)Nc2ccc(C(=N)N)cc2)c(C(=O)O)c1", "Plasminogen (Homo sapiens)", -0.18],
  ["CC(C)CNC(=O)c1ccc(-c2ccc(-c3ccsc3)cc2C(=O)Nc2ccc(C(=N)N)cc2)c(C(=O)O)c1", "Plasminogen (Homo sapiens)", -1.46],
  ["CC(C)CNC(=O)c1ccc(-c2ccc(-c3ccco3)cc2C(=O)Nc2ccc(C(=N)N)cc2)c(C(=O)O)c1", "Plasminogen (Homo sapiens)", -0.79],
  ["C=C(CCO)c1ccc(-c2ccc(C(=O)NCC(C)C)cc2C(=O)O)c(C(=O)Nc2ccc(C(=N)N)cc2)c1", "Plasminogen (Homo sapiens)", -0.45],
  ["CC(C)CNC(=O)c1ccc(-c2ccc(-c3ccoc3)cc2C(=O)Nc2ccc(C(=N)N)cc2)c(C(=O)O)c1", "Plasminogen (Homo sapiens)", -0.60]
]}

====

Experiment: Selectivity ratio of IC50 for tissue factor/factor 7a to IC50 for trypsin

{"columns": ["smiles record", "Ratio IC50"],
 "data": [
  ["CC(C)CNC(=O)c1ccc(-c2ccc(-c3cscc3CO)cc2C(=O)Nc2ccc(C(=N)N)cc2)c(C(=O)O)c1", 56.7],
  ["C/C=C\\Cc1ccc(-c2ccc(C(=O)NCC(C)C)cc2C(=O)O)c(C(=O)Nc2ccc(C(=N)N)cc2)c1", 119],
  ["C=C(CCO)c1ccc(-c2ccc(C(=O)NCC(C)C)cc2C(=O)O)c(C(=O)Nc2ccc(C(=N)N)cc2)c1", 75.5]
]}

====

Assay: Selectivity ratio of IC50 for tissue factor/factor 7a to IC50 for trypsin

{"columns": ["smiles record", "Ratio IC50"],
 "data": [
  ["CC(C)CNC(=O)c1ccc(-c2ccc(-c3cccn3C)cc2C(=O)Nc2ccc(C(=N)N)cc2)c(C(=O)O)c1", 5.4],
  ["CC(C)CNC(=O)c1ccc(-c2ccc(-c3cscc3CN=[N+]=[N-])cc2C(=O)Nc2ccc(C(=N)N)cc2)c(C(=O)O)c1", 133],
  ["C=C(C)c1ccc(-c2ccc(C(=O)NCC(C)C)cc2C(=O)O)c(C(=O)Nc2ccc(C(=N)N)cc2)c1", 40.8],
  ["CC(C)CNC(=O)c1ccc(-c2ccc(-c3ccco3)cc2C(=O)Nc2ccc(C(=N)N)cc2)c(C(=O)O)c1", 41.4],
  ["CC(C)CNC(=O)c1ccc(-c2ccc(-c3ccsc3)cc2C(=O)Nc2ccc(C(=N)N)cc2)c(C(=O)O)c1", 37.7],
  ["CC(C)CNC(=O)c1ccc(-c2ccc(-c3cccs3)cc2C(=O)Nc2ccc(C(=N)N)cc2)c(C(=O)O)c1", 16]
]}
